measurement_notes: Pharmacokinetics after oral single- and multiple-dose administration
Format: in vivo, human
condition: both sexes, human, in vivo, oral, as stated in SDSS/PK results
result_type: half-life

Please supply the value of reported half-life for the item Cc1ccc(Cn2nc(CCCc3ccc(OC(C)(C)C(=O)O)cc3)[nH]c2=O)cc1
< 10 h

* * *

measurement_notes: Pharmacokinetics after oral single- and multiple-dose administration
Type: in vivo, human
condition: both sexes, human, in vivo; oral, healthy obese subjects; read-out: Median time at maximal concentration (tmax)
result_type: Tmax

Please report the measured Tmax for Cc1ccc(Cn2nc(CCCc3ccc(OC(C)(C)C(=O)O)cc3)[nH]c2=O)cc1 [LY518674]
30 to 60 min
